Reported inhibition at 10 µM by item:
target: COX-2 (Homo sapiens, UniProt P35354); construct: To induce COX-2, lipopolysaccharide (LPS) from E. coli; endogenous in cells; host or cells: heparinised human whole blood from donors, with COX-2 induced by E. coli LPS; test: Human COX-2 enzyme activity in human whole blood (LPS-induced, thromboxane B2 EIA); assay type: cell-based; settings: 10 μM; human whole blood; LPS induction; read-out: COX-2 Inhibition (% at 10 μM)
Sequence (P35354 18-604): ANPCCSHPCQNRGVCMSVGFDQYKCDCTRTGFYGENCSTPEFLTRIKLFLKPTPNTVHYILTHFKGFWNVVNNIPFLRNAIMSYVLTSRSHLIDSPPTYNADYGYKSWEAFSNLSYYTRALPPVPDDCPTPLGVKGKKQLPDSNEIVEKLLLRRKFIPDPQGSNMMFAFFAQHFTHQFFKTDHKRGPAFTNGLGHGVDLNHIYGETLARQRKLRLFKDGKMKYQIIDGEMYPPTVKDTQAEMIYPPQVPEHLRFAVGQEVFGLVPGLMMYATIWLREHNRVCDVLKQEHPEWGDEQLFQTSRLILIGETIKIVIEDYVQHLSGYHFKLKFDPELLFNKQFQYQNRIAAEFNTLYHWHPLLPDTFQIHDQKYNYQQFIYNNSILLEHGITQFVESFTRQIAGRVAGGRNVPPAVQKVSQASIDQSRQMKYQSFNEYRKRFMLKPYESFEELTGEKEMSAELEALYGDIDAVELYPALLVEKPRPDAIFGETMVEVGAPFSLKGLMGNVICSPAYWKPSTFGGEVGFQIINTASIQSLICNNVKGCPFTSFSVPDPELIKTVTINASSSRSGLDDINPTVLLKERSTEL
Quantity: inhibition at 10 µM (%)

Molecule	Unit Name	Obs Value
CS(=O)(=O)c1ccc(-c2cc(/C=C/CCO[N+](=O)[O-])nn2-c2ccccc2)cc1 [Example 11f]	%	90
Cc1ccc(-n2nc(C(=O)CCCO[N+](=O)[O-])cc2-c2ccc(S(C)(=O)=O)cc2)cc1 [Example 12e]	%	95
CS(=O)(=O)c1ccc(-c2cc(COCCO)nn2C2CCCCC2)cc1 [Example 15d]	%	40
CS(=O)(=O)c1ccc(-c2cc(C(=O)CCCO[N+](=O)[O-])nn2-c2ccc(Cl)cc2)cc1 [Example 44e]	%	100
CS(=O)(=O)c1ccc(-c2cc(C(=O)CCCO)nn2-c2ccc(Br)cc2)cc1 [Example 14d]	%	70
CS(=O)(=O)c1ccc(-c2cc(C(F)(F)OCCCO)nn2-c2ccccc2)cc1	%	85
CS(=O)(=O)c1ccc(-c2cc(/C=C\CCO[N+](=O)[O-])nn2-c2ccccc2)cc1 [Example 11e]	%	100
COc1ccc(-n2nc(COCCCO[N+](=O)[O-])cc2-c2ccc(S(C)(=O)=O)cc2)cc1	%	100
Cc1ccc(-n2nc(COCCCO[N+](=O)[O-])cc2-c2ccc(S(C)(=O)=O)cc2)cc1	%	95
CS(=O)(=O)c1ccc(-c2cc(C(=O)CCCO[N+](=O)[O-])nn2-c2ccc(Br)cc2)cc1 [Example 14e]	%	95
CS(=O)(=O)c1ccc(-c2cc(COc3cccc(CO)c3)nn2C2CCCCC2)cc1 [Example 17b]	%	100
CS(=O)(=O)c1ccc(-c2cc(C(F)(F)OCCCO[N+](=O)[O-])nn2-c2ccccc2)cc1	%	95

###

A collection of compounds and their measured COX-2 Inhibition (% at 1 μM)
molecular target: COX-2 (Homo sapiens, UniProt P35354); construct: To induce COX-2, lipopolysaccharide (LPS) from E. coli; endogenous in cells; host or cells: heparinised human whole blood from donors, with COX-2 induced by E. coli LPS; assay: Human COX-2 enzyme activity in human whole blood (LPS-induced, thromboxane B2 EIA); type: cell-based; settings: 1 μM; human whole blood; LPS induction
Quantity: COX-2 Inhibition (% at 1 μM) (%)

Compound	Quantity	Unit Name	Obs Value
NS(=O)(=O)c1ccc(-c2c(-c3ccccc3)noc2COCCO)cc1 [Example 27a]	COX-2 Inhibition (% at 1 μM)	%	40
CS(=O)(=O)c1ccc(-c2cc(C(=O)CO[N+](=O)[O-])nn2-c2ccccn2)cc1 [Example 35c]	COX-2 Inhibition (% at 1 μM)	%	25
CS(=O)(=O)c1ccc(-c2cc(CO[N+](=O)[O-])nn2C2CCCCCCC2)cc1 [Example 1h]	COX-2 Inhibition (% at 1 μM)	%	50
CS(=O)(=O)c1ccc(-c2cc(/C=C\CCO)nn2C2CCCCC2)cc1 [Example 4e]	COX-2 Inhibition (% at 1 μM)	%	30
NS(=O)(=O)c1ccc(-c2c(-c3ccccc3)noc2COCCO[N+](=O)[O-])cc1 [Example 27b]	COX-2 Inhibition (% at 1 μM)	%	50
NS(=O)(=O)c1ccc(-c2c(-c3ccccc3)noc2COCCS(=O)(=O)CCO[N+](=O)[O-])cc1 [Example 37c]	COX-2 Inhibition (% at 1 μM)	%	20
NS(=O)(=O)c1ccc(-c2c(-c3ccccc3)noc2COCC(F)(F)C(F)(F)CO)cc1 [Example 33a]	COX-2 Inhibition (% at 1 μM)	%	40
CS(=O)(=O)c1ccc(-c2cc(/C=C/CCO)nn2C2CCCCC2)cc1 [Example 21b]	COX-2 Inhibition (% at 1 μM)	%	10
NS(=O)(=O)c1ccc(-c2c(-c3ccccc3)noc2COCCCO[N+](=O)[O-])cc1 [Example 26b]	COX-2 Inhibition (% at 1 μM)	%	55
NS(=O)(=O)c1ccc(-c2c(-c3ccccc3)noc2COCCCO)cc1 [Example 26a]	COX-2 Inhibition (% at 1 μM)	%	50
CS(=O)(=O)c1ccc(-c2cc(/C=C\CCO)nn2-c2ccccc2)cc1 [Example 11d]	COX-2 Inhibition (% at 1 μM)	%	0
CS(=O)(=O)c1ccc(-c2cc(CO)nn2C2CCCCCCC2)cc1 [Example 1g]	COX-2 Inhibition (% at 1 μM)	%	35
CS(=O)(=O)c1ccc(-c2cc(C(=O)CCCCCO[N+](=O)[O-])nn2C2CCCCC2)cc1 [Example 22d]	COX-2 Inhibition (% at 1 μM)	%	30
